What cAMP activity, GLP1 EC50 nM was measured for each of the following?
biological target: human GLP-1 receptor (GLP-1R) (human, UniProt P43220 24-463); assay: cell-based or functional assay
*1 amine or outer side, *2 acyl side, *3 side chain or, on linkers, in order; H or OH if unused. Primed or numbered codes have the meaning given here. Where no end group is shown, it is not given here. Side-chain parts run from the residue outwards. [ ]: non-standard residue; d: D form. The star is where a group is joined. PEG4′ = 4 PEG units (K(PEGxpalm): Lys with x PEG units and palmitoyl at epsilon N, C-terminal (PEG)4); γGlu = O=C(O)[C@H](CCC(=O)[*:2])N[*:1]; Palmitoyl = CCCCCCCCCCCCCCCC(=O)*; PEG12′ = not defined here
Answer shape: numeric part, then the unit.

// worked examples, cAMP activity, GLP1 EC50 nM included
>>> measured_result("HSQGTFTSDYSKYKDSRRAQDFVQWLV[PEG4′] (not fully specified (residue 14); printed as HSQGTFTSDYSKYB1DSRRAQDFVQWLVZ4) [g427]")
"0.004 nM"
>>> measured_result("HSQGTFTSDYSKYLDSKRAQDFVQWLEA (K(gE-palm) at 17 (printed as B); C-terminal PEG2) [g533]")
"0.09 nM"
>>> measured_result("HSQGTFTSDYSKYLDSK([γGlu-Palmitoyl])RAQRDFVAWLV[PEG12′] (not fully specified; printed as HSQGTFTSDYSKYLDSBRAQRDFVAWLVZ12) [g828]")
"0.04 nM"

Below are some binders; for each one, tell me its cAMP activity, GLP1 EC50 nM.
1. HSQGTFTSDYSKYLDSRKRAQDFVQWLV[PEG4′] (not fully specified (residue 18); printed as HSQGTFTSDYSKYLDSRB1RAQDFVQWLVZ4) [g415]
2. HSQGTFTSDYSKYLDSXRAQDFVQWLV (not fully specified; K(PEG4-palm) at 17; C-terminal PEG2) [g437]

Completion:
1: 0.007 nM; 2: 0.006 nM

Short answer for HSQGTFTSDYSXYLDSRRAQDFVQWLV (not fully specified; K(PEG4-palm) at 12; C-terminal PEG4) [g417] : cAMP activity, GLP1 EC50 nM was 0.02 nM
